Attribution: the kinase profiling compilation of Christmann-Franck et al. (2016)

Target: UniProtKB Q05513
Sequence (Q05513 whole entry, looked up): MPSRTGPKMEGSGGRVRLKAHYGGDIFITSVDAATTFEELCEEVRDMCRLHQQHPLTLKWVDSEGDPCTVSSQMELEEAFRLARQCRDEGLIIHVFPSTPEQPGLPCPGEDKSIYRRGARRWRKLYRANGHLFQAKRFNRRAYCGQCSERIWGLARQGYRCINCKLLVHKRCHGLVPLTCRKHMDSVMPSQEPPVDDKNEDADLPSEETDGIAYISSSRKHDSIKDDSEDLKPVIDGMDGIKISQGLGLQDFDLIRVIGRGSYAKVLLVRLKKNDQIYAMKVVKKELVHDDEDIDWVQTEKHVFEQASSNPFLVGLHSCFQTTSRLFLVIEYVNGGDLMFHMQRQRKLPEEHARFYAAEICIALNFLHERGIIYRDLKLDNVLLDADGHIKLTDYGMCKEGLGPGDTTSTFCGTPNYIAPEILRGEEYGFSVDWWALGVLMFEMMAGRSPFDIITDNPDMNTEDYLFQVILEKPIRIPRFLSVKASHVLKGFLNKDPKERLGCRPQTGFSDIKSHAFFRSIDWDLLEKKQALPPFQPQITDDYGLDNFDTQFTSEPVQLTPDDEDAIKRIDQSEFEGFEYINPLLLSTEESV
Assay: radiometric filter-binding kinase assay
Conditions: compound 0.1 µM
metric: residual activity (%)

Study these solved cases before continuing.
# compound, numeric_result
rows = [
    ("COc1cc(O)c2c(c1)[C@H]1OC1C[C@H](O)[C@H](O)C(=O)/C=C\\C[C@H](C)OC2=O (stereo partly drawn)", 78),
    ("CN1CCN(CCOc2cc(OC3CCOCC3)c3c(Nc4c(Cl)ccc5c4OCO5)ncnc3c2)CC1", 101),
    ("CCc1cncnc1N1CCN(Cc2nc3cc(C(F)(F)F)ccc3[nH]2)CC1", 78),
    ("O=C(O)c1ccc(-c2c[nH]c3ncc(-c4ccccc4)cc23)cc1C1CCCC1", 96),
    ("NC(=O)c1cc(-c2ccnc(NC3CCCCC3)c2)nc(N2CCNCC2)c1", 88),
    ("NC(=O)c1cc2c(-c3cccc(-c4ccccc4)c3)cnc(N)c2s1", 108),
    ("O=C(NCCCNc1nc(Nc2cccc(CN3CCOCC3)c2)ncc1C1CC1)C1CCC1", 90),
    ("CC1=C(CO)C(=O)O[C@@H]([C@@H](C)[C@H]2CC[C@H]3[C@@H]4C[C@H]5O[C@]56[C@@H](O)C=CC(=O)[C@]6(C)C4CC[C@]23C)C1 (stereo partly drawn)", 103),
]

[1] CNC(=O)C1[C@H]2O[C@@](C)([C@@H]1N)n1c3ccccc3c3c4c(c5c6ccccc6n2c5c31)C(=O)NC4 (stereo partly drawn)
[2] C=CC(=O)N1CCC[C@@H](n2nc(-c3ccc(Oc4ccccc4)cc3)c3c(N)ncnc32)C1
Prompt: Between 1 and 2 , which one shows the smaller residual activity number? Selection: enter the item's label.
Response: 1
(1: 56%, 2: 90%)

[I] O=C(Nc1ccccc1-c1cn2c(CN3CCNCC3)csc2n1)c1cnc2ccccc2n1
[II] Cc1ccc(-c2ccc3c(ccc4sc5c(c43)NC[C@@H](C)NC5=O)n2)cn1
Prompt: Endpoint returns the identifier whose residual activity is numerically larger, either I or II . Selection: enter the item's label.
Response: II
(II: 115%, I: 78%)
